Molecular target: NHERF2 PDZ 1 (Homo sapiens, UniProt Q15599)
Construct: made in house; host or cells: E. coli
Sequence (Q15599 11-90 limits assumed): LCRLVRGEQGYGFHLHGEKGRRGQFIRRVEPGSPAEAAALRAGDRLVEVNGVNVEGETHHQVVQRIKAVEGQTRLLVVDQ
Test: Holdup assay, NHERF2-1
Assay type: binding
Conditions: PDZ domain NHERF2-1
*1 amine or outer side, *2 acyl side, *3 side chain or, on linkers, in order; H or OH if unused. Where a SMILES comes first, the peptide text is derived from it. The star is where a group is joined. X1 = O=C(CCCC[C@@H]1SC[C@@H]2NC(=O)N[C@@H]21)NCCCOCCOCCOCCCN*; Suc = O=C(CCC(=O)[*:2])[*:1]
endpointName: BI
Please reply with the value in numeric form only.

compound	BI
CC[C@H](C)[C@H](NC(=O)[C@H](CCC(N)=O)NC(=O)[C@@H](NC(=O)[C@H](Cc1c[nH]cn1)NC(=O)[C@H](CCC(N)=O)NC(=O)[C@H](CC(=O)O)NC(=O)[C@H](CCC(=O)O)NC(=O)[C@H](CC(=O)O)NC(=O)[C@H](Cc1ccccc1)NC(=O)[C@@H]1CCCN1C(=O)CCC(=O)NCCCOCCOCCOCCCNC(=O)CCCC[C@@H]1SC[C@@H]2NC(=O)N[C@@H]21)[C@@H](C)O)C(=O)N[C@H](C(=O)N[C@@H](CCCCN)C(=O)N[C@H](C(=O)O)C(C)C)[C@@H](C)O [PTEN_13] ({X1-Suc}-PFDEDQHTQITKV-OH)	0.11

Enquiry: Request: BI, test system NHERF2 PDZ 1 (Homo sapiens, UniProt Q15599), entry `CC[C@H](C)[C@H](NC(=O)[C@H](CCC(N)=O)NC(=O)[C@@H](NC(=O)[C@H](Cc1c[nH]cn1)NC(=O)[C@H](CCC(N)=O)NC(=O)[C@H](CC(=O)O)NC(=O)[C@H](CCC(=O)O)NC(=O)[C@H](CC(=O)O)NC(=O)CCC(=O)NCCCOCCOCCOCCCNC(=O)CCCC[C@@H]1SC[C@@H]2NC(=O)N[C@@H]21)[C@@H](C)O)C(=O)N[C@H](C(=O)N[C@@H](CCCCNC(C)=O)C(=O)N[C@H](C(=O)O)C(C)C)[C@@H](C)O`
Return: 0.078

Enquiry: Consider next the compound `CC[C@H](C)[C@H](NC(=O)[C@H](CCC(N)=O)NC(=O)[C@@H](NC(=O)[C@H](Cc1c[nH]cn1)NC(=O)[C@H](CCC(N)=O)NC(=O)[C@H](CC(=O)O)NC(=O)[C@H](CCC(=O)O)NC(=O)[C@H](CC(=O)O)NC(=O)CCC(=O)NCCCOCCOCCOCCCNC(=O)CCCC[C@@H]1SC[C@@H]2NC(=O)N[C@@H]21)[C@@H](C)O)C(=O)N[C@H](C(=O)N[C@@H](CCCCN)C(=O)N[C@H](C(=O)O)C(C)C)[C@@H](C)O` in the same way.
Return: 0.099

Enquiry: Next up: CC[C@H](C)[C@H](NC(=O)[C@H](CCC(N)=O)NC(=O)[C@@H](NC(=O)[C@H](Cc1c[nH]cn1)NC(=O)[C@H](CCC(N)=O)NC(=O)[C@H](CC(=O)O)NC(=O)[C@H](CCC(=O)O)NC(=O)[C@H](CC(=O)O)NC(=O)CCC(=O)NCCCOCCOCCOCCCNC(=O)CCCC[C@@H]1SC[C@@H]2NC(=O)N[C@@H]21)[C@@H](C)O)C(=O)N[C@H](C(=O)N[C@@H](CCCNC(=N)N)C(=O)N[C@H](C(=O)O)C(C)C)[C@@H](C)O [PTEN_KR] ({X1-Suc}-DEDQHTQITRV-OH)
Return: 0.169

---

Test system: 266 human PDZ domains (PDZome)
Experiment: Holdup assay (chromatographic retention, PDZome-binding profile, BI)
Design: key: binding intensity: 0.00 = no binding, 1.00 = maximal binding
Conditions: PDZ domain SHROOM4-1
*1 amine or outer side, *2 acyl side, *3 side chain or, on linkers, in order; H or OH if unused. Where a SMILES comes first, the peptide text is derived from it. The star is where a group is joined. X1 = O=C(CCCC[C@@H]1SC[C@@H]2NC(=O)N[C@@H]21)NCCCOCCOCCOCCCN*; Suc = O=C(CCC(=O)[*:2])[*:1]
Quick reference: BI of the listed items.

compound	reportedValue
CC[C@H](C)[C@H](NC(=O)[C@H](CCC(N)=O)NC(=O)[C@@H](NC(=O)[C@H](Cc1c[nH]cn1)NC(=O)[C@H](CCC(N)=O)NC(=O)[C@H](CC(=O)O)NC(=O)[C@H](CCC(=O)O)NC(=O)[C@H](CC(=O)O)NC(=O)CCC(=O)NCCCOCCOCCOCCCNC(=O)CCCC[C@@H]1SC[C@@H]2NC(=O)N[C@@H]21)[C@@H](C)O)C(=O)N[C@H](C(=O)N[C@@H](CCCNC(=N)N)C(=O)N[C@H](C(=O)O)C(C)C)[C@@H](C)O [PTEN_KR] ({X1-Suc}-DEDQHTQITRV-OH)	-0.148

Enquiry: Value lookup for BI; key = `CC[C@H](C)[C@H](NC(=O)[C@H](CCC(N)=O)NC(=O)[C@@H](NC(=O)[C@H](Cc1c[nH]cn1)NC(=O)[C@H](CCC(N)=O)NC(=O)[C@H](CC(=O)O)NC(=O)[C@H](CCC(=O)O)NC(=O)[C@H](CC(=O)O)NC(=O)CCC(=O)NCCCOCCOCCOCCCNC(=O)CCCC[C@@H]1SC[C@@H]2NC(=O)N[C@@H]21)[C@@H](C)O)C(=O)N[C@H](C(=O)N[C@@H](CCCCNC(C)=O)C(=O)N[C@H](C(=O)O)C(C)C)[C@@H](C)O`
Return: -0.073

Enquiry: Let us now turn to CC[C@H](C)[C@H](NC(=O)[C@H](CCC(N)=O)NC(=O)[C@@H](NC(=O)[C@H](Cc1c[nH]cn1)NC(=O)[C@H](CCC(N)=O)NC(=O)[C@H](CC(=O)O)NC(=O)[C@H](CCC(=O)O)NC(=O)[C@H](CC(=O)O)NC(=O)[C@H](Cc1ccccc1)NC(=O)[C@@H]1CCCN1C(=O)CCC(=O)NCCCOCCOCCOCCCNC(=O)CCCC[C@@H]1SC[C@@H]2NC(=O)N[C@@H]21)[C@@H](C)O)C(=O)N[C@H](C(=O)N[C@@H](CCCCN)C(=O)N[C@H](C(=O)O)C(C)C)[C@@H](C)O [PTEN_13] ({X1-Suc}-PFDEDQHTQITKV-OH)
Return: -0.086

---

The following compounds are listed with their measured BI values.
Biological target: MAGI1-5 (Homo sapiens)
Sequence (Q96QZ7 970-1066): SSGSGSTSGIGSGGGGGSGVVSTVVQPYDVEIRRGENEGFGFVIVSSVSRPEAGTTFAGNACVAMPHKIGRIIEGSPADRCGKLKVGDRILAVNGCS
Assay: Holdup assay, MAGI1-5
Type: binding
*1 amine or outer side, *2 acyl side, *3 side chain or, on linkers, in order; H or OH if unused. Where a SMILES comes first, the peptide text is derived from it. The star is where a group is joined. X1 = O=C(CCCC[C@@H]1SC[C@@H]2NC(=O)N[C@@H]21)NCCCOCCOCCOCCCN*; Suc = O=C(CCC(=O)[*:2])[*:1]
Form: value (number only, do not type unit).

Consider the worked cases shown below.
compound	reportedValue
CC[C@H](C)[C@H](NC(=O)[C@H](CCC(N)=O)NC(=O)[C@@H](NC(=O)[C@H](Cc1c[nH]cn1)NC(=O)[C@H](CCC(N)=O)NC(=O)[C@H](CC(=O)O)NC(=O)[C@H](CCC(=O)O)NC(=O)[C@H](CC(=O)O)NC(=O)CCC(=O)NCCCOCCOCCOCCCNC(=O)CCCC[C@@H]1SC[C@@H]2NC(=O)N[C@@H]21)[C@@H](C)O)C(=O)N[C@H](C(=O)N[C@@H](CCCCN)C(=O)N[C@H](C(=O)O)C(C)C)[C@@H](C)O [PTEN_11]	0.536
CC[C@H](C)[C@H](NC(=O)[C@H](CCC(N)=O)NC(=O)[C@@H](NC(=O)[C@H](Cc1c[nH]cn1)NC(=O)[C@H](CCC(N)=O)NC(=O)[C@H](CC(=O)O)NC(=O)[C@H](CCC(=O)O)NC(=O)[C@H](CC(=O)O)NC(=O)[C@H](Cc1ccccc1)NC(=O)[C@@H]1CCCN1C(=O)CCC(=O)NCCCOCCOCCOCCCNC(=O)CCCC[C@@H]1SC[C@@H]2NC(=O)N[C@@H]21)[C@@H](C)O)C(=O)N[C@H](C(=O)N[C@@H](CCCCN)C(=O)N[C@H](C(=O)O)C(C)C)[C@@H](C)O [PTEN_13] ({X1-Suc}-PFDEDQHTQITKV-OH)	0.274
CC[C@H](C)[C@H](NC(=O)[C@H](CCC(N)=O)NC(=O)[C@@H](NC(=O)[C@H](Cc1c[nH]cn1)NC(=O)[C@H](CCC(N)=O)NC(=O)[C@H](CC(=O)O)NC(=O)[C@H](CCC(=O)O)NC(=O)[C@H](CC(=O)O)NC(=O)CCC(=O)NCCCOCCOCCOCCCNC(=O)CCCC[C@@H]1SC[C@@H]2NC(=O)N[C@@H]21)[C@@H](C)O)C(=O)N[C@H](C(=O)N[C@@H](CCCNC(=N)N)C(=O)N[C@H](C(=O)O)C(C)C)[C@@H](C)O [PTEN_KR] ({X1-Suc}-DEDQHTQITRV-OH)	0.619

Enquiry: Please give the measured BI for this compound: CC[C@H](C)[C@H](NC(=O)[C@H](CCC(N)=O)NC(=O)[C@@H](NC(=O)[C@H](Cc1c[nH]cn1)NC(=O)[C@H](CCC(N)=O)NC(=O)[C@H](CC(=O)O)NC(=O)[C@H](CCC(=O)O)NC(=O)[C@H](CC(=O)O)NC(=O)CCC(=O)NCCCOCCOCCOCCCNC(=O)CCCC[C@@H]1SC[C@@H]2NC(=O)N[C@@H]21)[C@@H](C)O)C(=O)N[C@H](C(=O)N[C@@H](CCCCNC(C)=O)C(=O)N[C@H](C(=O)O)C(C)C)[C@@H](C)O [PTEN_Ac]
Return: 0.647

Source: paper PMC7774954
